# Test system: Escherichia coli
# ASSAY_NAME: Inhibition of protein synthesis in Escherichia coli S30 extract at 2 uM after 75 mins by luciferase based luminescence assay relative to GE2270A
# Type: functional
OBSERVABLE: inhibition at 2 µM (%)
Give the quantity in %, number only.

Look over these answered cases.
COMPOUND | ASSAY_TARGET | inhibition at 2 µM / %
CNC(=O)C[C@@H]1NC(=O)c2csc(n2)-c2ccc(-c3nc(N(CCCCC(=O)O)C(=O)O[C@H]4CC[C@](CCCCC(=O)O)(C(=O)O)CC4)cs3)nc2-c2csc(n2)-c2csc(n2)[C@H]([C@@H](O)c2ccccc2)NC(=O)CNC(=O)c2nc(sc2COC)[C@H](C(C)C)NC(=O)c2nc1sc2C | Escherichia coli | 50
CNC(=O)C[C@@H]1NC(=O)c2csc(n2)-c2ccc(-c3nc(NC(=O)CC[C@H](CC(=O)O)C(=O)O)cs3)nc2-c2csc(n2)-c2csc(n2)[C@H]([C@@H](O)c2ccccc2)NC(=O)CNC(=O)c2nc(sc2COC)[C@H](C(C)C)NC(=O)c2nc1sc2C | Escherichia coli | 30
CNC(=O)C[C@@H]1NC(=O)c2csc(n2)-c2ccc(-c3nc(N(CCCCCCC(=O)O)C(=O)O[C@H]4CC[C@H](C(=O)O)CC4)cs3)nc2-c2csc(n2)-c2csc(n2)[C@H]([C@@H](O)c2ccccc2)NC(=O)CNC(=O)c2nc(sc2COC)[C@H](C(C)C)NC(=O)c2nc1sc2C | Escherichia coli | 67

Give the reported inhibition at 2 µM for this compound. CNC(=O)C[C@@H]1NC(=O)c2csc(n2)-c2ccc(-c3nc(N(CCCCC(=O)O)C(=O)O[C@@H]4CC[C@@H](C(=O)O)C[C@H]4CCCCC(=O)O)cs3)nc2-c2csc(n2)-c2csc(n2)[C@H]([C@@H](O)c2ccccc2)NC(=O)CNC(=O)c2nc(sc2COC)[C@H](C(C)C)NC(=O)c2nc1sc2C 50

Note down inhibition at 2 µM recorded for CNC(=O)C[C@@H]1NC(=O)c2csc(n2)-c2ccc(-c3nc(N(CCCCC(=O)O)C(=O)OC4CC(C(=O)O)C4)cs3)nc2-c2csc(n2)-c2csc(n2)[C@H]([C@@H](O)c2ccccc2)NC(=O)CNC(=O)c2nc(sc2COC)[C@H](C(C)C)NC(=O)c2nc1sc2C (stereo not given in full) 67
